Target: LXRα full length (FL) (Homo sapiens)
Construct: the full length (FL) proteins of LXRα (amino acids 1-447); NP005684
Sequence (Q13133 1-447): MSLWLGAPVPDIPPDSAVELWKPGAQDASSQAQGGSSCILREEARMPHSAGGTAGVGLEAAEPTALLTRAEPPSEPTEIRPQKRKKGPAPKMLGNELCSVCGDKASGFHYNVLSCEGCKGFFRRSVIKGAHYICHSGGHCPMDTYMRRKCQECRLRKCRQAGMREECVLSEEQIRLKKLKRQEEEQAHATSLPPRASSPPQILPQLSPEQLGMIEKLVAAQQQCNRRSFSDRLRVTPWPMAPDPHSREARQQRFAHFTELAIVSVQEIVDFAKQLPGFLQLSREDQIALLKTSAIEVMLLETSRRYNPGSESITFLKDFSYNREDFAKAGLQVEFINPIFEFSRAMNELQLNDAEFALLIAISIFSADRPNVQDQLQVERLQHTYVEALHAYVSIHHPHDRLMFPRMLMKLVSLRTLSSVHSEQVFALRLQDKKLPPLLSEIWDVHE
Test: LXR Gal4 reporter transient transfection assay, mammalian two-hybrid, FL-M2H Gal4α
Conditions: HEK293 cells; inverse agonist unless *
pEC50: −log10 of the molar value.
READOUT: pEC50

Take a look at these entries with their results.
>>> measurement("Cc1sc2ccccc2c1CN(Cc1ccc(-c2cccc(S(=O)(=O)CC(=O)O)c2)cc1)Cc1ccc(C(F)(F)F)o1 [7/6]")
"6.00 to 7.00"
>>> measurement("CCc1ccc2ccccc2c1CN(Cc1ccc(-c2cccc(C(C)(C)C(=O)O)c2)cc1)Cc1ccc(C(F)(F)F)o1 [27/52]")
"> 7.00"
>>> measurement("CN1CCc2nc3ccccc3c(C(=O)N(Cc3ccc(-c4cccc(C(C)(C)C(=O)O)c4)cc3)Cc3ccc(C(F)(F)F)o3)c2C1 [27/80]")
"6.00 to 7.00"
>>> measurement("COc1cc(CN(Cc2ccc(C(F)(F)F)o2)Cc2c(C)ccc3ccccc23)ccc1-c1cc(F)c(CO)c(S(=O)(=O)CC(=O)O)c1 [Example 22]")
"5.00 to 6.00"
>>> measurement("COc1c(C)nc2ccccc2c1C(=O)N(Cc1ccc(-c2cccc(C(C)(C)C(=O)O)c2)cc1)Cc1ccc(C(F)(F)F)o1 [27/81]")
"> 7.00"

Proceeding to the next molecule to report its pEC50.
Recall and state the measured pEC50 for Cc1cc(C)c(CN(Cc2ccc(-c3cccc(S(=O)(=O)CC(=O)O)c3)cc2)Cc2cccc(C(F)(F)F)c2)c(C)c1 [7/14] . 5.00 to 6.00

Hello, the source for this data is patent US20200131144A1, in case you need it.
